molecular target: KRAS G13D protein in DLD-1 cells (Homo sapiens, UniProt P01116, G13D); construct: endogenous in cells; host or cells: DLD-1; assay: KRAS degradation assay (Western Blot) in DLD-1 cells; assay type: cell-based; conditions: 24 h
Sequence (P01116 1-188 isoform P01116-2 G13D): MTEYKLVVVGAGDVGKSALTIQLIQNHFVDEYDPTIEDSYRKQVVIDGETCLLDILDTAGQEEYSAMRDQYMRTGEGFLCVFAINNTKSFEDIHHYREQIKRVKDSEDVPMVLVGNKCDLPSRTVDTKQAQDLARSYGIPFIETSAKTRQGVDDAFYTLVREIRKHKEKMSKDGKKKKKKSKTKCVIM
readout-type: Dmax

- structure-string: "C#Cc1c(F)ccc2cc(O)cc(-c3ncc4c(N5CCC[C@@](C)(O)C5)nc(OCC5(CN6CCN(CC7CCC8(CC7)CCN(C(=O)c7ccc(OC)c(N9CCC(=O)NC9=O)c7)CC8)CC6)CC5)nc4c3F)c12"
  Dmax: "80 to 100%"
- structure-string: "C#Cc1c(F)ccc2cc(O)cc(-c3ncc4c(N5CCC[C@@](C)(O)C5)nc(OCC5(CN6CCN(CC7CCC8(CC7)CCN(C(=O)c7ccc(C)c(N9CCC(=O)NC9=O)c7)CC8)CC6)CC5)nc4c3F)c12"
  Dmax: "80 to 100%"
- structure-string: "C#Cc1c(F)ccc2cc(O)cc(-c3ncc4c(N5CCC[C@@](C)(O)C5)nc(OCC5(CN6CCN(CC7CCC8(CC7)CCN(C(=O)c7ccc(Cl)c(N9CCC(=O)NC9=O)c7)CC8)CC6)CC5)nc4c3F)c12"
  Dmax: "80 to 100%"
- structure-string: "CCc1cccc2cc(O)cc(-c3ncc4c(N5CCC[C@@](C)(O)C5)nc(OCC5(CN6CCN(CC7CCC8(CC7)CCN(C(=O)c7ccc(Cl)c(N9CCC(=O)NC9=O)c7)CC8)CC6)CC5)nc4c3F)c12"
  Dmax: "80 to 100%"

# input for lookup
Data request, read-out Dmax, for CCc1c(F)ccc2cc(O)cc(-c3ncc4c(N5CCC[C@@](C)(O)C5)nc(OCC5(CN6CCN(CC7CCC8(CC7)CCN(C(=O)c7ccc(OC)c(N9CCC(=O)NC9=O)c7)CC8)CC6)CC5)nc4c3F)c12
80 to 100%
